system: 3T3-L1 mouse adipocytes; assay: Free fatty acid levels in cultured 3T3-L1 mouse adipocytes and insulin dependence (Example 17); type: cell-based; details: peptide 10 μM alone, isoproterenol 0.1 nM, relative to isoproterenol treated cells
Non-standard residues stand in square brackets, D forms with d. No end group written: not given here.
Reported Free Fatty Acid Levels, Percent of Isoproterenol Control Activity No Insulin values follow for various substances
Assay Metric: Free Fatty Acid Levels, Percent of Isoproterenol Control Activity No Insulin (%)

Substance	Unit Info	Assay Value
25 (RREMVYQCLCG[dA]; cysteine pairing not given here) [compound 25]	%	110
60 (RRMMGMVFQSL) [compound 60]	%	110
19 (RRMVFQCLCG[dA]; cysteine pairing not given here) [compound 19]	%	105
16 (RRMMGMVFQCLSG[dA]) [compound 16]	%	110
48 (MMGMVFQSL) [compound 48]	%	92
31 (RRMEVYQCLCG[dA]; not fully specified; printed as RRMEVYQCLCG(dA); cysteine pairing not given here) [compound 31]	%	113
45 (MMGMVF) [compound 45]	%	105
35 (RXLLGLVFQSLCGA; (2)..(2) Xaa is Aib (alpha-aminoisobutyric acid); (14)..(14) D-Ala) [compound 35]	%	101
46 (MMGMVFQ) [compound 46]	%	98
55 (RRMMGM) [compound 55]	%	100

###

Free Fatty Acid Levels, Percent of Isoproterenol Control Activity No Insulin values by entry
test system: 3T3-L1 mouse adipocytes; assay: Free fatty acid levels in cultured 3T3-L1 mouse adipocytes and insulin dependence (Example 17); assay type: cell-based; conditions: peptide 10 μM alone, isoproterenol 0.1 nM, relative to isoproterenol treated cells
Non-standard residues stand in square brackets, D forms with d. No end group written: not given here.
Assay Metric: Free Fatty Acid Levels, Percent of Isoproterenol Control Activity No Insulin (%)

Substance	Unit Info	Assay Value
13 (RRMMGMVFQELCG[dA]) [compound 13]	%	105
17 (RRMMGMVFQSLSG[dA]) [compound 17]	%	98.4
33 (RRLLGLVFQSLCG[dA]) [compound 33]	%	98
41 (RRLLGLVFQSLEG[dA]) [compound 41]	%	97
26 (RREMVYQCLEG[dA]) [compound 26]	%	104
32 (RRMEVYQCLEG[dA]) [compound 32]	%	108

###

test system: H4-IIE cells; experiment: Glucose production in cultured H4-IIE cells and insulin dependence; format: cell-based, rat; conditions: peptide 10 μM with 800 μM insulin, 24 h, relative to insulin treated cells
Non-standard residues stand in square brackets, D forms with d. Primed or numbered codes have the meaning given here. No end group written: not given here. PEG12′ = polyethylene glycol moiety of 12 units
Reported Glucose Production, Percent of Control Activity With Insulin values follow for various substances
Assay Metric: Glucose Production, Percent of Control Activity With Insulin (%)

Substance	Assay Value
17 (RRMMGMVFQSLSG[dA]) [compound 17]	95.5
27 (RRMAYQCLEG[dA]) [compound 27]	98.9
10 (RRMMGMVYQCLCG[dA]; cysteine pairing not given here) [compound 10]	38.2
28 (RRMGYQCLEG[dA]) [compound 28]	91.4
22 (RRMVYQCLCG[dA]; cysteine pairing not given here) [compound 22]	49.1
31 (RRMEVYQCLCG[dA]; not fully specified; printed as RRMEVYQCLCG(dA); cysteine pairing not given here) [compound 31]	108.3
8 (RRMMGMVFQCLCG[dA]; cysteine pairing not given here) [compound 8]	102.8
13 (RRMMGMVFQELCG[dA]) [compound 13]	68
30 (RRMMGMVAQCLEGA; (14)..(14) RRMMGMVAQCLEG(A) [compound 30]	65.7
29 (RRMMGMVYQCLEG[dA]) [compound 29]	148.6
14 (RRMMGMVFQCLEG[dA]) [compound 14]	159.6
18 (RRXXGXVFQCLCGA; (3)..(3) Xaa is Norleucine; (4)..(4) Xaa is Norleucine; (6)..(6) Xaa is Norleucine; (14)..(14) D-Ala) [compound 18]	140.4
16 (RRMMGMVFQCLSG[dA]) [compound 16]	56.8
24 (RRMVYQCLEG[dA]) [compound 24]	61.9
21 (RRMMGMVFQCLCG[dA]K(PEG12′); cysteine pairing not given here) [compound 21]	72.7
20 (KRRMMGMVFQCLCGA; (1)..(1) PEG12; (15)..(15) d-Ala) [compound 20]	108.6
26 (RREMVYQCLEG[dA]) [compound 26]	103.1
11 (RRMMGMVAQCLCGA) [compound 11]	57.5
25 (RREMVYQCLCG[dA]; cysteine pairing not given here) [compound 25]	65.2
32 (RRMEVYQCLEG[dA]) [compound 32]	81.9
12 (RRMMGMVEQCLCG[dA]; cysteine pairing not given here) [compound 12]	44.8
23 (RRMVFQCLEG[dA]) [compound 23]	57.7
19 (RRMVFQCLCG[dA]; cysteine pairing not given here) [compound 19]	68.9
